# Test system: OVCAR-3
# protocol-details: NCI tumour cell line growth inhibition, 48 h
Active and inactive are the calls of the source. Rule as the data show it: active = GI50 up to about 1.1 µM and inactive = higher.
Labels: true (active), false (inactive)

INSERT INTO measurements (molecule, label) VALUES
  ('O=C(CC(=O)CC(O)(C(F)(F)F)C(F)(F)F)CC(O)(C(F)(F)F)C(F)(F)F', 'false'),
  ('CCOC(=O)c1ccc(-c2cc(C)[nH]n2)[nH]1', 'false'),
  ('CC1(C)OCC2(CO1)CSCCCSCC1(COC(C)(C)OC1)CSCCCSC2', 'false'),
  ('CC1CCCc2c(CC3CC(=O)NC(=O)C3)n[nH]c21 (stereo not given)', 'false'),
  ('COc1ccc(/C=C2/C(=O)N(/C=C3\C(=O)Oc4ccccc4C3=O)/C(=N/C(C)=O)N2C)cc1OC', 'true');
